biological target: PLU1 (KDM5B) (Homo sapiens, UniProt Q9UGL1); construct: (1-752); host or cells: U2OS; assay: Immunofluorescence assay in U2OS cells transfected with pCMVHA PLU1 (H3K4me2 mark); type: cell-based; settings: 20 hours
Sequence (Q9UGL1 1-752): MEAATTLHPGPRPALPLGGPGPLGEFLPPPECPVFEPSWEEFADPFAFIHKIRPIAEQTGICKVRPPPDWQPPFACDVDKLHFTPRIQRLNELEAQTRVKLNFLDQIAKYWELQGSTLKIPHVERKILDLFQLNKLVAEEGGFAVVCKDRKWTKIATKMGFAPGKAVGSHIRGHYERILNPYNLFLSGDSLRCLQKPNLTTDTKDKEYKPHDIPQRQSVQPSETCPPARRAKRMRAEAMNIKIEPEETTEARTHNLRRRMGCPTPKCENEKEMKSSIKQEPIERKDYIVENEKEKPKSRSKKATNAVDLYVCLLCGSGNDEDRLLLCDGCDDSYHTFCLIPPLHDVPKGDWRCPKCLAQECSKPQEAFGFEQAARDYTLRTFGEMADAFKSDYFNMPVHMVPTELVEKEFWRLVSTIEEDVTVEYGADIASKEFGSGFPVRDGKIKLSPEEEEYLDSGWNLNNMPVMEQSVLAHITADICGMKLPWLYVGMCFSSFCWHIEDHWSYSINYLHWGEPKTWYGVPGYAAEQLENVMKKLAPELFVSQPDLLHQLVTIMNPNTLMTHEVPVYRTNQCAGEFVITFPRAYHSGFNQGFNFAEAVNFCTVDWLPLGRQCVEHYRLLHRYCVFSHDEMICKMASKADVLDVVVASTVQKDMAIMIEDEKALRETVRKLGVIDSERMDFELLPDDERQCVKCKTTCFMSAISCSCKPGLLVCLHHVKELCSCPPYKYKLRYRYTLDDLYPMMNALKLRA
pIC50: −log10 of the molar value.
QUANTITY_KIND: pIC50

Recorded results for 10 compounds are shown here.
[[record]]
compound = "O=C(CNCc1cc(C(=O)O)ccn1)NC1CCN(Cc2ccc(-c3ccccc3)o2)CC1 [drawing 319]"
test_value = "< 4.30"

[[record]]
compound = "CN(C)CCCCNCc1cc(C(=O)O)ccn1"
test_value = "4.30 to 6.00"

[[record]]
compound = "CCN(CC)CCCCNCc1cc(C(=O)Oc2ccc(OC)cc2)ccn1 [drawing 329]"
test_value = "> 6.00"

[[record]]
compound = "O=C(O)c1ccnc(CN[C@@H]2CCN(CCCc3ccccc3)C2)c1 [drawing 315]"
test_value = "4.30 to 6.00"

[[record]]
compound = "CCN(CCC#N)C(=O)CNCc1cc(C(=O)O)ccn1 [drawing 320]"
test_value = "4.30 to 6.00"

[[record]]
compound = "CN(CCCNCc1cc(C(=O)O)ccn1)Cc1ccccc1F [drawing 322]"
test_value = "4.30 to 6.00"

[[record]]
compound = "CCN(CC)CCCCNCc1cc(C(=O)OCCN(C)C)ccn1 [drawing 331]"
test_value = "4.30 to 6.00"

[[record]]
compound = "Cn1c(CNCc2cc(C(=O)O)ccn2)nc2ccccc21 [drawing 307]"
test_value = "4.30 to 6.00"

[[record]]
compound = "O=C(O)c1ccnc(CNCC[C@@H]2CCCN2Cc2ccccc2)c1"
test_value = "4.30 to 6.00"

[[record]]
compound = "CCN(CC)CCCCNCc1cc(C(=O)O)ccn1 [drawing 327]"
test_value = "4.30 to 6.00"


Dear reader, for each entry below, please note its pIC50.
1. COCCN1CCN(C(=O)CNCc2cc(C(=O)O)ccn2)CC1 [drawing 308]
2. CCN(CCN(C)C)C(=O)CNCc1cc(C(=O)O)ccn1 [drawing 328]
3. CCCCN(C)C(=O)CNCc1cc(C(=O)O)ccn1 [drawing 306]
4. O=C(CNCc1cc(C(=O)O)ccn1)NC1CCN(CCCc2ccccc2)CC1 [drawing 317]

1: < 4.30; 2: 4.30 to 6.00; 3: < 4.30; 4: < 4.30

List reported pIC50 for each of these compounds:
1. O=C(O)c1ccnc(CNCC(=O)N2CCCC2)c1 [drawing 305]
2. CCCCN1CCCC1CCNCc1cc(C(=O)O)ccn1 (centres unmarked) [drawing 321]
3. CN(CCCCN(Cc1ccccc1)C1CC1)C(=O)CNCc1cc(C(=O)O)ccn1 [drawing 323]

1. < 4.30
2. 4.30 to 6.00
3. < 4.30

Here are 3 compounds. What values of pIC50 were reported for them?
1. COC(=O)c1ccnc(CNCCCN2CCCC2)c1 [drawing 326]
2. CN(CCCc1nccn1C)C(=O)CNCc1cc(C(=O)O)ccn1 [drawing 312]
3. O=C(CNCc1cc(C(=O)O)ccn1)NC1CCN(Cc2ccco2)CC1 [drawing 318]

["4.30 to 6.00", "4.30 to 6.00", "< 4.30"]

Just for reference, patent US10221139B2 is where these values come from.
